Entry source: the nanobody polyreactivity screen of Harvey et al. (2022)

Test: yeast display, Sf9 membrane polyspecificity reagent, FACS + sequencing; frameworks hold sequencing errors
endpoint_name: polyreactivity (PSR sort gate)

QVQLVESGGGLVQAGGSLRLSCADSGSTFRRKVMGWYRQAPGKERELVASIRSGGTTNYADSVKGRFTISRDNAKNTVYLQMNSLKPEDTAVYYCAAARSRGYYRASAEVLYGYWGQGTQVTVSS | high polyreactivity
QVQLVESGGGLVQAGGSLRLSCAASGRIFGHYAMGWYRQAPGKETELVASISWRGGRTYYADSVKGRFTISRDNAKNTVYLQMNSLKPEDTAVYYCAARVNYKPYADYYYWGQGTQVTVSS | high polyreactivity

----------
Test: yeast display, Sf9 membrane polyspecificity reagent, FACS + sequencing; frameworks hold sequencing errors
endpoint_name: polyreactivity (PSR sort gate)

QLQLVESGGGLVQAGGSLRLSCAASGYIFFKYAMGWYRQAPWKERELVASITSRGGTTYYADSVKGRFTISRDNAKNTVYLQMNSLKPEDTAVYYCAALRRSSFGYWGQGTQVTVSS | high polyreactivity
QVQLVESGGGLVQAGGSLRLSCAASGSIFGPYSMGWYRQAPGKERELVAAISWRGGTTRYADSVKGRFTISRDNAKNTVYLQMNSLKPEDTAVYYCNRTVYSKTQYDYDYWGQGTQVTVSS | high polyreactivity
QVQLVESGGGLVQAGGSLRLSCAASGGIFRGYAMGWYRQAPGKERELVATITFSGTSTNYADSVKGRFTISRDNAKNTVYFQMNRLKPEDTAVYYFAAGPVFGGGGYDYWGKGTQVTVSS | low polyreactivity
QVQLVESGGGLVQAGGSLRLSSAASGFTLIPNGMGWYRQAPGKEREFVAAISGTGGRTSYADSVKGRFTISRDNAKNTVYLQMHSLKPEDTAVYYCNARVLVYSERAYKYYLLYDYWGQGTQVTVSS | high polyreactivity
QVQLVESGGGLVQAGGSLRLSCAASGSTFQINAMGWYRQAPGKERELVARNSGSGSRTYYADSVKGRFTISRYNAKNTVSLQMNSLKPEDTAVYYCAARGTGKGYDSWGQGTQVTVSS | high polyreactivity
QVQLQESGGGLVQAGGSLRLSCAASGNISVTGFMGWYRQAPGKERELVASIGIGGTTYYADSVKGRFSISRDNAKNTVYLKMNSLKQEDTSVYYCAARYLYYAYSYWGQGTQVTVSS | low polyreactivity
QGQLVESGGGLVQAGGSLRLSCAASGRTLYYYAMGWYRQAPGKERELVAAISGGGRTYYADSVKGRFTISRDNAKKTVDLQMNSLKPEDTAVYYCAARYRKSGLDNYWGQGTQVTVSS | high polyreactivity
QVQLVESGGGLVQAGGSLRLSCDASGFTFYKNAMGWYRQAPGKERELVAAISSGGSTSYADSVKGRFTISRDNAKNTVYLQMNSLKPEDTAVYFCAADRFAFYGRYRGPYYYWGQGTQVTVSS | high polyreactivity
QVQLVESGGGLVQARGSLRLSCAASGSIFPPYAMGWYRQAPGKERELVAAINSGGSTNYADSVKGRFTISRDNAKNTVYLQMNSLKAEDTAVYYCAAEVVYPVYEYDYWGQGTQVTVSS | low polyreactivity
QVQLVESGGGLVQAGGSLRLSCAASGSTFKAYVMGWYRQAPGKERELVAVISRSGGTTYYADSVKGRFTISRDNAKNTVYLQMNSLKPEDTAVYYCAAQWRYQYPESLESYYWGQGTQVTVSS | high polyreactivity

Q: What does the data say about its polyreactivity (PSR sort gate)? Entry: "QVQLVESGGGLVQAGGRLRLRCAASGSIFEPNAMGWYRQSPWKERELVATIRDSGGRTYYADSVKGRFTISRDNAKNTVYLQMNSLKPEDTAVYYCAARRYLGWFSYRLYDYWGQGTQVTVSS"
Ans: high polyreactivity

Q: Now the sequence "QVQLVESGGGLVQAGGSLRLSCAASGSTINKYAMGWYRQAPGKERELVAAISRSGGSTNYADSVKGRFTISRDNAKNTVYLQMNSLKPEDTAVYYCNAGYGRWQRHDYWGQGTQVTVSS"
Ans: high polyreactivity

Q: Now the sequence "QVQLVESGGGLVQAGGSLRLSCAASGSTFPKYAMGWYRQAPGKERELVASISVTTGSTYYADSVKGRFTISRDNAKNTVYLQMNSLNPEDTAVYYCAKRTYSRKFRGAYNYWGQGTQVTVSS"
Ans: high polyreactivity

Q: Now the sequence "QVQLVESVGGLVQAGGSLRLSCAASGFIFSYYAMGRYRQAPGKERELVATINFSGGRTYYADSVKGRFTISRDNAKNTVYLQMNSLKPEDTAVYYCAAVARSRAAPGVGYWGQGTQVTVSS"
Ans: high polyreactivity

Q: Now the sequence "QVQLVESGGGLVQAGGSLRLSCAASGFTFIYYTMGWYRQAPGKEREFVAAISWGGSTYYADSVKGRFTISRDNAKITVYLLMNSLKPEDTAVYYCNAVSAVAYTRFVYWGQGTQVTVSS"
Ans: high polyreactivity

----------
Assay: yeast display, Sf9 membrane polyspecificity reagent, FACS + sequencing; frameworks hold sequencing errors
endpoint_name: polyreactivity (PSR sort gate)

QVQLVESGGGLVQAGGSLRLSCAASGFIFFYYAMGWYRQAPGKERELVAAISASGGSTYYADSVKGRFTMSRDNAKNTVYLQMNSLKPEDTAVYYCATDPISRARLYGQRDYWGQGTQVTVSS | high polyreactivity
QVQLVESGGGLVQAGGSLRLSCAASGSTLFAYAMGWYRQAPGKERELVAAITSGASTNCADSVKGRFTISRDNAKNTVYLQMNSLKPEDTAVYYCAKDVSGTNPDYDYWGQGTQVTVSS | low polyreactivity
QVQLVESGGGLVQAGGSLRLTCAASGIIYYVYAMVWYRQAPGKERELVAAITSGGTTYYADSVKGRFTISRDNAKNTVYLQMNSLKPEDTAVYYCAAARGGGRTYGYWGQGTQVTVSS | high polyreactivity
QVQLVESGVGLVQAGGSLRLSCSASGSTFFGNGMGWYRQAPGKERELVAAISGGGSTHYADSVKGRFTISRDNAKNTVYLQMNSLKPEDPAVYYCSPSRDTVGRGPIQRDYWGQGTQVTVSS | low polyreactivity

// next entry
Q: What does the data say about its polyreactivity (PSR sort gate)? Entry: "QVQLVESGGGLVQAGGSLRLSCAASGITFQWYAMGWYRQAPGKERELVAGISSGGSTYYADSVKGRFTISRDNAKNTVYLQMNSLKPEDTAVYYCAADYGWYSPFYPSYKYEYWGQGTQVTVSS"
Ans: low polyreactivity

----------
Assay: yeast display, Sf9 membrane polyspecificity reagent, FACS + sequencing; frameworks hold sequencing errors
endpoint_name: polyreactivity (PSR sort gate)

Previously resolved entries follow.
QVQLVQSGGGLVQAGGSLSLSCAASGRIFGINAMGWYRQAPGKESELVAAISSGGSTYYADSVKGRFTISLDNAKNTVYLQMNSLKPEDTAVYYCAADYDSYVSHDRGVWRDYWGQGTQVTVSS | low polyreactivity
QVQLVESGGGLVQAGGSLRLSCAASGRIFYSNAMGWYRQAPGKERELVATISTGGSTYAESVKGRFTISRDNAKNTVYLQLISLTPEESAVYYCAVDEWRWRVGAVAYYYWGQGTQVTVSS | low polyreactivity
QVQLVESGGGLVQAGGSLRLSCAASGLTFVYYAMGWYRQAPGNERELVAAISRRGGSTNYADSVKGRFTISRDNAKNTVYLQMNSLKPEDTAVYYCAATSRYFQPPGYGGGRIGYGYWGQGTQVTVSS | high polyreactivity
QVQLVESGGGLVQAGGSLRLSCAASGFTFYRYAMGWYRQAPGNERELVAAISSGGRTTYADSVKGRFTISRDNANNTVYLQMNSLKPQDTAVYYCVFVYVYDYYYWGQGTQVTVSS | high polyreactivity
QVQLVESGGGLVQAGGSLRLSCAASGSTFHYYAMGWYRQAPGKERELVAAISQSGSGTYYADSVKGRFTISRDNAKNTVYLQMNSLKPEDTAVYYCAKESTKIYRVVEMDYWGQGTQVTVSS | low polyreactivity

Q: What does the data say about its polyreactivity (PSR sort gate)? Entry: "QVQLVESGGGLVQAGGSLPLSCAASGFTFYRYTMVWYRQAPGKERELVAAISRGGRTYYADSVKGRFTISRDNAKNTDYLQMNSLKPEDTAVYYCNARYPSADDWGQGTQVTVSS"
Ans: high polyreactivity

Q: Now the sequence "QVQLVESGGGLVQAGGSLRLSCAASGNIFSSNAMGWYRQAPGKERELVAAITRSGGSTYYADSVKGRFTISRDNSKKTVYLLMNSLKPEDTAFYYCAARHYPRNSWGYDYWGQGSQVTVSS"
Ans: high polyreactivity

Q: Now the sequence "QVQLVESGGGLVQAGGSLRLSCAASGSTFATYVMGWYRQAPGKETELVAAISSSGSTNYADSVKGRFTISRDNAKNTVYLQMNSLKPEYTAVYYCAARYYRLTDRPYNPIVSYGYWGQGTQVTVSS"
Ans: high polyreactivity

Q: Now the sequence "QLQLVESGGGLVQAGGSLRLSCAASGSTLYWNAMGWYRQAPGKERELVAGISIGGRTNYADSVKGRFTISRDNAKNTVYLQMNSLKPEDTAVYYCNAENTYLGSRYRPYNYWGQGTQVTVSS"
Ans: low polyreactivity

Q: Now the sequence "QVQLVESGGGLVQAGGSLRLTCAASGRTFTVYAMGGYRQAPGKEREFVAAITERGGSTYYADSVKGRFTISRDNAKNTVYLQMNSLKPEDTAVYYCAAVYYWRPGWYVRFDYWGQGTQVTVSS"
Ans: low polyreactivity
